Assay System: human LPA1 (Homo sapiens)
Sequence (Q92633 whole entry): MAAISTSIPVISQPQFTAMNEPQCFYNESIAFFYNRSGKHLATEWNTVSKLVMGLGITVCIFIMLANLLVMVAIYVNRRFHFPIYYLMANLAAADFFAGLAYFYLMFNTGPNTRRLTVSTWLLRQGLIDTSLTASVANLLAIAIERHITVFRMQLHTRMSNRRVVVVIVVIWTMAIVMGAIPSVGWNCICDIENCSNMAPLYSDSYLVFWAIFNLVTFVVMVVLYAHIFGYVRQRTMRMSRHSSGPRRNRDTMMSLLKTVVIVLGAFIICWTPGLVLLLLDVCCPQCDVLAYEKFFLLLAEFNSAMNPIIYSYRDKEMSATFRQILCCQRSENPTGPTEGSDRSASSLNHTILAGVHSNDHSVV
Measurement Description: LPA1 functional antagonist assay (calcium flux)
Conditions Used: CHO cells overexpressing human LPA1; inhibition of calcium flux induced by 10 nM LPA; read-out: hLPA1 IC50
Label rule met when IC50 is strictly below 0.2 µM; otherwise label rule not met.

In plain terms, does `CCCOc1cccc(Nc2c(-c3ccc(O[C@H]4CCC[C@H](C(=O)O)C4)c(C)n3)nnn2C)n1` come in under 0.2 µM for IC50? rule met

In plain terms, does `Cc1nc(-c2nnn(C)c2CNc2nccc(OC(C)C)n2)ccc1O[C@H]1CCC[C@H](C(=O)O)C1` come in under 0.2 µM for IC50? rule met

In plain terms, does `CCc1cc(OCc2c(-c3ccc(O[C@H]4CCC[C@H](c5nnn[nH]5)C4)c(C)n3)nnn2C)ncn1` come in under 0.2 µM for IC50? rule met

In plain terms, does `Cn1nnc(-c2cnc(O[C@H]3CCC[C@H](C(=O)O)C3)cn2)c1CNc1nccc(C(C)(C)C)n1` come in under 0.2 µM for IC50? rule not met

In plain terms, does `COc1ncnc(OCc2c(-c3ccc(O[C@H]4CCC[C@H](C(=O)O)C4)c(C)n3)nnn2C)c1C` come in under 0.2 µM for IC50? rule not met

In plain terms, does `CCCOc1nc(NCc2c(-c3ccc(O[C@H]4CCC[C@H](C(=O)O)C4)c(C)n3)nnn2C)nc(OC)n1` come in under 0.2 µM for IC50? rule not met

In plain terms, does `Cc1nc(-c2nnn(C)c2CNc2cccc(Cc3ccccc3)n2)ccc1O[C@H]1CCC[C@H](C(=O)O)C1` come in under 0.2 µM for IC50? rule not met
